test: soluble on expression in E. coli; label from the status in PepcDB or PDB records
Quantity name: soluble on expression in E. coli

Incoming: Tell me soluble on expression in E. coli reported for `MSLKEKLVAIVGPTAVGKTKTSVMLAKRLNGEVISGDSMQVYRGMDIGTAKITAEEMDGVPHHLIDIKDPSESFSVADFQDLATPLITEIHERGRLPFLVGGTGLYVNAVIHQFNLGDIRADEDYRHELEAFVNSYGVQALHDKLSKIDPKAAAAIHPNNYRRVIRALEIIKLTGKTVTEQARHEEETPSPYNLVMIGLTMERDVLYDRINRRVDQMVEEGLIDEAKKLYDRGIRDCQSVQAIGYKEMYDYLDGNVTLEEAIDTLKRNSRRYAKRQLTWFRNKANVTWFDMTDVDFDKKIMEIHNFIAGKLEEKSKEGHHHHHH`
Outgoing: soluble

Incoming: For the sequence `MSLIELWPAIDLIGSTSVRLTEGKYDSEEKMSRSAEESIAYYSQFECVNRIHIVDLIGAKAQYAREFDYIKSLRRLTTKDIEVGGGIRTKSQIMDYFAAGINYCIVGTKGIQDTDWLKEMAHTFPGRIYLSVDAYGEDIKVNGWEEDTELNLFSFVRQLSDIPLGGIIYTDIAKDGKMSGPNFELTGQLVKATTIPVIASGGIRHQQDIQRLASLNVHAAIIGKAAHQASFWEGLEEGHHHHHH` , give its measured soluble on expression in E. coli value.
Outgoing: soluble
